Measured values drawn from patent US20210047373A1 for this set.

# assay-overview: Fluorescence activation / brightness with DFHBI
# Format: biochemical
# measurement-parameters: normalized 0 to 1 across all three chromophores; average ± SD of two protein concentrations
Items are presented alongside their recorded Fluorescence brightness, 100 nM DFHBI.
// return a plain number; no unit text

Query string: Give reported Fluorescence brightness, 100 nM DFHBI value for mFAP2a: SEQ ID NO:66 (protein, (1)..(1) optionally absent) MSRAAQLLPGTWQATFTNEDGQTSQGQWHFQPRSPYTMDIVAQGTISDGRPIVGYGKATVKTPDTLDIDITYPSLGNIKAQGQITMDSPTQFKWDATTKGENDFHGRLTGTLQRQE
Result string: 1.0

Query string: Using known records, supply Fluorescence brightness, 100 nM DFHBI for mFAP2: SEQ ID NO:38; variant of b11L5F.1 with 6-residue insertion in the seventh β-turn (protein, (1)..(1) optionally absent) MSRAAQLLPGTWQVTMTNEDGQTSQGQMHFQPRSPYTMDVVAQGTISDGRPISGYGKVTVKTPDTLDVDITYPSLGNIKAQGQITMDSPTQFKFDATTKGAGNFTGRLTGTLQRQE
Result string: 0.12

Query string: Give a short answer stating reported Fluorescence brightness, 100 nM DFHBI for mFAP1: SEQ ID NO:33; variant of b11L5F.2 (protein, (1)..(1) optionally absent) MSRAAQLLPGTWQTTMTNEDGQTSQGQMHFQPRSPYTLDVVAQGTISDGRPISGYGKVTVKTDDTLDVDITYPSLGNIKVQGQVTMDSPTQFKFDATTSDGKKLTGTLQRQE .
Result string: 0.18

Query string: State its Fluorescence brightness, 100 nM DFHBI for this molecule: mFAP2.4: SEQ ID NO:59 (protein, (1)..(1) optionally absent) MSRAAQLLPGTWQVTMTNEDGQTSQGQMHFQPRSPYTMDIVAQGTISDGRPIVGYGKATVKTPDTLDVDITYPSLGNIKAQGQITMDSPTQFKFDATTKGAGNFTGRLTGTLQRQE
Result string: 0.69

Query string: Provide only the value of recorded Fluorescence brightness, 100 nM DFHBI for mFAP2.3: SEQ ID NO:58 (protein, (1)..(1) optionally absent) MSRAAQLLPGTWQVTMTNEDGQTSQGQMHFQPRSPYTMDVVAQGTISDGRPIVGYGKVTVKTPDTLDVDITYPSLGNIKAQGQITMDSPTQFKFDATTKGENDFHGRLTGTLQRQE
Result string: 0.15

Query string: Determine from records and report Fluorescence brightness, 100 nM DFHBI for mFAP2.1: SEQ ID NO:40 (protein, (1)..(1) optionally absent) MSRAAQLLPGTWQVTMTNEDGQTSQGQMHFQPRSPYTMDVVAQGTISDGRTIVGYGKVTVKTPDTLDVDITYPSLGNIKAQGQITMDSPTQFKFDATTKGAGNFTGRLTGTLQRQE
Result string: 0.13
